tgt: recombinant human meprin α (Homo sapiens, UniProt Q16819)
Sequence (Q16819 66-746): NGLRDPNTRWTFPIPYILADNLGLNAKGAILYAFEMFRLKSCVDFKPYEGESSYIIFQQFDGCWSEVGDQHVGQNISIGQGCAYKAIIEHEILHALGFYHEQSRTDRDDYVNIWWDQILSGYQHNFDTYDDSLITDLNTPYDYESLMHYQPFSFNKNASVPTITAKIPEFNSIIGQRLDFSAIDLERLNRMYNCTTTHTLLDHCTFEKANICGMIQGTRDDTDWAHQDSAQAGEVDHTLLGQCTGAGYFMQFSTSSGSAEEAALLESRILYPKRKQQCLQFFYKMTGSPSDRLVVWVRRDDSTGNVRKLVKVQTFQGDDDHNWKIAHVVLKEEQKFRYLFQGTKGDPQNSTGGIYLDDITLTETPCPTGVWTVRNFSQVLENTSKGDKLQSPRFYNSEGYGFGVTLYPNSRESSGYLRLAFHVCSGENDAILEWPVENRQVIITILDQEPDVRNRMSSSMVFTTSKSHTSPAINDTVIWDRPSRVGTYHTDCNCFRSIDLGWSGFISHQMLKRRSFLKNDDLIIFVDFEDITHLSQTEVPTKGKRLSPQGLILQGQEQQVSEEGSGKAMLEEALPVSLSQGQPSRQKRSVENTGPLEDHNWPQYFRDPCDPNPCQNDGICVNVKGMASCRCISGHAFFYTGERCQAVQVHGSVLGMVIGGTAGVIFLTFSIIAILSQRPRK
procedure.summary: meprin α inhibition, quenched fluorogenic peptide substrate assay
Format: biochemical
conditions: meprin α over meprin β
Kindly state SF: selectivity factor (K i app meprin β/K i app meprin α) for each of the entries shown.
Just the number, please, no unit attached.

Look at this molecule and give its reported SF: selectivity factor (K i app meprin β/K i app meprin α). O=C(Cn1nc(-c2ccccc2)cc1-c1ccccc1)NO [3 a]
41

Now consider O=C(Cn1c(-c2ccccc2)nnc1-c1ccccc1)NO [2 g] and answer again.
132

Check CCCCC[C@H](CC(=O)NO)C(=O)N[C@H](C(=O)N1CCC[C@H]1CO)C(C)C [Actinonin, reference compound] too.
27

For O=C(Cc1c(-c2ccccc2)ncn1-c1ccccc1)NO [2 i] then?
222

One more molecule: O=C(CCn1c(-c2ccccc2)cc2ccccc21)NO [4 b]
41

Same for O=C(Cc1c(-c2ccccc2)n[nH]c1-c1ccccc1)NO [2 e]
66

Same thing, different molecule: O=C(CCc1c(-c2ccccc2)noc1-c1ccccc1)NO [2 d]
435

Consider next the molecule O=C(CCn1c(-c2ccccc2)nc2ccccc21)NO [4 d] in the same way.
27

Try this molecule next: O=C(CCn1c(-c2ccccc2)ccc1-c1ccccc1)NO [2 b]
20

Also O=C(Cn1c(-c2ccccc2)nc2cccnc21)NO [4 f] ?
17

Now the same for O=C(CCn1c(-c2ccccc2)nnc1-c1ccccc1)NO [2 h]
138

Now consider O=C(Cn1c(-c2ccccc2)cc2ccccc21)NO [4 a] and answer again.
16

###

tgt: recombinant human meprin β (Homo sapiens, UniProt Q16820)
Sequence (Q16820 62-701): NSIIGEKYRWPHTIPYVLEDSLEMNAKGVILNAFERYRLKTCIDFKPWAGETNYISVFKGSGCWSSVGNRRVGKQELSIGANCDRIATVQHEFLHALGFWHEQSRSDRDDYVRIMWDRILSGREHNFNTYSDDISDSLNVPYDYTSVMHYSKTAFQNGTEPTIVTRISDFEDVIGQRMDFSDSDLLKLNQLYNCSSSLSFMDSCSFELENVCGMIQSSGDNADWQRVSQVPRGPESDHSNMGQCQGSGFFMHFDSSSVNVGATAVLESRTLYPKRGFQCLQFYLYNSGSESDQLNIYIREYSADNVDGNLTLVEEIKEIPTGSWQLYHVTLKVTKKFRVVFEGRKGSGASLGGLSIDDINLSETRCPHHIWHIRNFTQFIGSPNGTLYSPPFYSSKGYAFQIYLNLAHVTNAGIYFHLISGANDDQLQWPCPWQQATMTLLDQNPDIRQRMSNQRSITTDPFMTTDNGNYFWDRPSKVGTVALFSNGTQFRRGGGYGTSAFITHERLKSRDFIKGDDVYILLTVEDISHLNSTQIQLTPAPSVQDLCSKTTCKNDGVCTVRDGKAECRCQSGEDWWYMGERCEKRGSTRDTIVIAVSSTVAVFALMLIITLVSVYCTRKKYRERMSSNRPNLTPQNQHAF
procedure.summary: meprin β inhibition, quenched fluorogenic peptide substrate assay
Kindly supply the reported Ki values for the records listed here.
# include the unit after the value

Requested field: Ki. Item: `O=C(CCn1c(-c2ccccc2)cc2ccccc21)NO`
17 µM

Another: `O=C(CCn1c(-c2ccccc2)ccc1-c1ccccc1)NO`
15 µM

Again, but for `O=C(Cn1c(-c2ccccc2)nc2cccnc21)NO`
4.56 µM

Same lookup for `O=C(CCn1c(-c2ccccc2)nc2ccccc21)NO` , please.
27.9 µM

Next molecule up: `O=C(CCc1c(-c2ccccc2)n[nH]c1-c1ccccc1)NO`
8.03 µM

Input `O=C(Cc1c(-c2ccccc2)ncn1-c1ccccc1)NO`
0.443 µM

Request: `O=C(Cn1c(-c2ccccc2)cc2ccccc21)NO`
1.08 µM
